# target: T1, CD40-human Fc (huFc) fusion protein (Creative BioMart) (human, UniProt P25942 21-193)
# T1 construct: bought; also called CD40-huFc; not shown: human Fc
# T1 sequence (P25942 21-193 limits assumed): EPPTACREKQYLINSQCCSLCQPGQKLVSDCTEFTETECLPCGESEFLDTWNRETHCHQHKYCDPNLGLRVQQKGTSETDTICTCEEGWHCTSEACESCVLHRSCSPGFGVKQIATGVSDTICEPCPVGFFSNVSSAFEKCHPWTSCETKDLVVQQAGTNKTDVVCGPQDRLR
# assay explanation: ELISA: CD40-huFc mixed with antibody, binding to plate-bound HA-tagged CD40L; further: test concentration or dose not given here
This section presents binders with their documented OD450 Ratio values.

Please review the following examples before continuing.
| binder | OD450 Ratio |
| --- | --- |
| AD164.14.6 (antibody, V domains shown, mouse hybridoma monoclonal; also called muAb9) VH: DVQLQESGPGLVKPSQSLSLTCSVTGYSITSNYYWNWIRQFPGNKLEWMGYIRYDGSNNYNPSLKNRISITRDTSKNQFFLKLNSVTTEDTATYYCARLDYWGQGTTLTVSS VL: DAVMTQTPLSLPVSLGDQASISCRSSQSLENTNGNTFLNWFLQKPGQSPQLLIYRVSNRFSGVPDRFSGSGSGTDFTLKISRVEAEDLGVYFCLQVTHVPFTFGSGTKLEIK | 2.35 ratio to isotype control |
| AD175.14.11 (antibody, V domains shown, mouse hybridoma monoclonal; also called muAb3) VH: EVQLQQSGPELVKPGASVKISCKASGYTFTDYYMNWVKQSHGKSLEWIGDINPNNGGTSYNQKFKGKATLTVDKSSSTAYMELRSLTSEDSAVYYCARRGGLGRGTYALDYWGQGTSVTVSS VL: DIQMTQTTSSLSASLGDRVTISCRASQDISNYLNWYQQKPDGTVKPLIYYTSRLHLGVPSRFSGSGSGTDYSLTISNLEQEDIATYFCQQGNTLPLTFGAGTKLELK | 0.09 ratio to isotype control |

# context switch: different binder, same OD450 Ratio
Request: // lookup OD450 Ratio for AD163.7.2 (antibody, V domains shown, mouse hybridoma monoclonal; also called muAb8) VH: QVQLQQSGPELVKSGASVKISCKASGYTFTDYYINWVKQRPGQGLEWIGWIFPGSGSVYCNEQFKGQATLTVDRSSSTAYMLLSSLTSEDSAVYFCASSLGKFAYWGQGTLVTVSA VL: DIVMTQSQKFMSTTVGDRVSITCKASQSVVTAVAWYQQKPGQSPKLLIYSASNRYTGVPDRFTGSGSGTDFALTIRTMQSEDLADYFCQQYSSYPYTFGGGTKLEIK
Response: 0.08 ratio to isotype control
